tested target: E. coli RNA polymerase σ^70 holoenzyme (Escherichia coli, UniProt P0A8T7+P0A8V2)
Sequence (P0A8T7 whole entry): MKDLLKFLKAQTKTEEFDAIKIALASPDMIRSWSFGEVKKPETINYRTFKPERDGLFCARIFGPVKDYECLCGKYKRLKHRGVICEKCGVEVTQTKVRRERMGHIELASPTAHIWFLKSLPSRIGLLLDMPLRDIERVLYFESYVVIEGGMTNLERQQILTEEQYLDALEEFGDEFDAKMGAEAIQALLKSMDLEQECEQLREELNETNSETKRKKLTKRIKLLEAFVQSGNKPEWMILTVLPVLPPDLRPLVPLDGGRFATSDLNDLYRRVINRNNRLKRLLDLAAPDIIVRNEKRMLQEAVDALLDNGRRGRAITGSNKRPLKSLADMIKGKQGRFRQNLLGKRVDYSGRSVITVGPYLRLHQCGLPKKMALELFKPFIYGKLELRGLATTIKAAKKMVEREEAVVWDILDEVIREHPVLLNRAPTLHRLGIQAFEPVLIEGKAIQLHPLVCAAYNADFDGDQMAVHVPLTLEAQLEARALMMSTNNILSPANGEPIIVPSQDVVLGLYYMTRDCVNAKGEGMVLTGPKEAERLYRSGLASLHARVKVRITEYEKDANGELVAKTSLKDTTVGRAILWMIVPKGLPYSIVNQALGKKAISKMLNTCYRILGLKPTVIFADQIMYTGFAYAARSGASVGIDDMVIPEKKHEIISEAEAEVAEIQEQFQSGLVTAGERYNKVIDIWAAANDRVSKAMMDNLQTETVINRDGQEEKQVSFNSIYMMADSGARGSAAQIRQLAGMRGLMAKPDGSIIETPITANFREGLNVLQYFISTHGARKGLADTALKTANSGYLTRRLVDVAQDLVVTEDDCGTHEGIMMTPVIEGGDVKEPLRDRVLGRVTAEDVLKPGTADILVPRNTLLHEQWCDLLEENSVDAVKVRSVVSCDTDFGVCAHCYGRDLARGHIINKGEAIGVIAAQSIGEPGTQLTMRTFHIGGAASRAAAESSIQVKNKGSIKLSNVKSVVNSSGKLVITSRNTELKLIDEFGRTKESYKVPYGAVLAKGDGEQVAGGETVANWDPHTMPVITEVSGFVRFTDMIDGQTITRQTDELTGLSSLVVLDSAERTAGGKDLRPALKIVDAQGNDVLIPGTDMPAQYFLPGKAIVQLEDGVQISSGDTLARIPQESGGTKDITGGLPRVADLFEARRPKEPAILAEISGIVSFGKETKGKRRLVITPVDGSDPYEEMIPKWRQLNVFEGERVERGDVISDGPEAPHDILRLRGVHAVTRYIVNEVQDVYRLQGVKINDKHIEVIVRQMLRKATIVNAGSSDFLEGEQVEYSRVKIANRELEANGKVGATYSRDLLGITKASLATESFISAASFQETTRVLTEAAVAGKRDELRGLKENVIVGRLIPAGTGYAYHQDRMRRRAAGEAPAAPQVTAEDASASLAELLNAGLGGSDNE
Sequence (P0A800 whole entry, further chain): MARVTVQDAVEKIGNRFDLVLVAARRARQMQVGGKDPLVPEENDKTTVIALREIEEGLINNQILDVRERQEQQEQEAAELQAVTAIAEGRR
Sequence (P0A8V2 whole entry): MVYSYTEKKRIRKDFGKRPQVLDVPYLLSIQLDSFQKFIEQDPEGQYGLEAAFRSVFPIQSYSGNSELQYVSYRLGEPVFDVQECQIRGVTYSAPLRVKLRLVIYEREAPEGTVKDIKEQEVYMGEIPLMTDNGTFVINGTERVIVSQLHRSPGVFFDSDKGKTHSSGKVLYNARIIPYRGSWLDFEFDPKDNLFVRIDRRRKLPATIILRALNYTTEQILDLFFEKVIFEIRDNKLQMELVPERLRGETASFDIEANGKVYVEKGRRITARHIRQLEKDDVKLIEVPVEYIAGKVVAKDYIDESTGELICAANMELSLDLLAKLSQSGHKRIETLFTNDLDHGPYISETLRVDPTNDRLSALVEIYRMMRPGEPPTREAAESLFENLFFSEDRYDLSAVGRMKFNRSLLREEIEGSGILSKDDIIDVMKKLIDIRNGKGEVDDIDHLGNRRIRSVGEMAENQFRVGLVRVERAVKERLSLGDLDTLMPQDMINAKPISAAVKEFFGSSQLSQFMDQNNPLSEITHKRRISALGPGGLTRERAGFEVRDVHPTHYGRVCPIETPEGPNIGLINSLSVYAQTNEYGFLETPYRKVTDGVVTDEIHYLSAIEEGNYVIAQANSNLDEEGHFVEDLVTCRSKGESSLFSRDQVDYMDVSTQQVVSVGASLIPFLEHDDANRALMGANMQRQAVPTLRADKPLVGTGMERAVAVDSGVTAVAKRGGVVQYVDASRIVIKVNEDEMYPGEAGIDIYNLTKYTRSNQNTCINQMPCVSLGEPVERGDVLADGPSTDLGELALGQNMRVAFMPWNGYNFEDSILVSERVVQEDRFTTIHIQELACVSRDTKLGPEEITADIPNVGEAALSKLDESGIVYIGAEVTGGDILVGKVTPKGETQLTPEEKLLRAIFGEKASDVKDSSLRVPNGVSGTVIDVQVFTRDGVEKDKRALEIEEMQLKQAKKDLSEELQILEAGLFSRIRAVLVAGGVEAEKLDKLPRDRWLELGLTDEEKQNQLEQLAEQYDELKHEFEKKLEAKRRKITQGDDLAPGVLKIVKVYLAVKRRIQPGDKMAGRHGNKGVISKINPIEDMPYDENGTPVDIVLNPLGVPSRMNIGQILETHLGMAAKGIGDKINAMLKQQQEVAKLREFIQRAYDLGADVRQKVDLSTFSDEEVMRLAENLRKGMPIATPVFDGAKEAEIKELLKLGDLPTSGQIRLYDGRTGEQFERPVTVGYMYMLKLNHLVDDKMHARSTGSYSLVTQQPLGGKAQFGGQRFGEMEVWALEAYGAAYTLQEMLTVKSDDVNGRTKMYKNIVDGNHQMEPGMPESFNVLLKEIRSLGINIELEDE
Sequence (P00579 whole entry, further chain): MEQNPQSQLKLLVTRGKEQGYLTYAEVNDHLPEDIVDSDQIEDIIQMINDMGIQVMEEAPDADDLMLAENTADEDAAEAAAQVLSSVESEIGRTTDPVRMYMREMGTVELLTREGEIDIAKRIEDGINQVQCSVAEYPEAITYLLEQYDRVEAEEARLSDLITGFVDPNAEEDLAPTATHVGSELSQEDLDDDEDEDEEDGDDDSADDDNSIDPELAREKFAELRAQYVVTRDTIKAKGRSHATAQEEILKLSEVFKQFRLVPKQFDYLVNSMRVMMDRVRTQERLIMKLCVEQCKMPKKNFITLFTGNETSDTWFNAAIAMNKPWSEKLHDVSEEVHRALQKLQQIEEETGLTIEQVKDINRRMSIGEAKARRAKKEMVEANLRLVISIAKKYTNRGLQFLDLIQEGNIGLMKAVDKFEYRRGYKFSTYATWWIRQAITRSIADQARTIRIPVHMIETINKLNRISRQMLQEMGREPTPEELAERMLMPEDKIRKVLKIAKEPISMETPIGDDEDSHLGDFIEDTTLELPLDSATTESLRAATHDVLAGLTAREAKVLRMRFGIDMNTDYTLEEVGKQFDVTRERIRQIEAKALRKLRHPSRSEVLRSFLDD
Sequence (P0A7Z4 whole entry, further chain): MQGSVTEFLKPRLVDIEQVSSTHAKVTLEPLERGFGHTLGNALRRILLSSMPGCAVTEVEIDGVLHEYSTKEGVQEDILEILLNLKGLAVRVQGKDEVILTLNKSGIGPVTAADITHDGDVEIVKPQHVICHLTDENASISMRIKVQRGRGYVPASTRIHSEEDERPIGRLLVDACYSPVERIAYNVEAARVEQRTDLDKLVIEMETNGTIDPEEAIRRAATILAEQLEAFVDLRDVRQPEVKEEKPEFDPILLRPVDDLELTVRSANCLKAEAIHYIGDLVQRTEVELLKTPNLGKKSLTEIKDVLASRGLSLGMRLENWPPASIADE
test summary: Fluorescence-detected RNA polymerase assay, E. coli RNA polymerase
Assay type: biochemical
experimental parameters: read-out: IC50 E. coli RNAP
pIC50: −log10 of the molar value.
Attribute: pIC50
endpoint: pIC50

{"columns": ["molecule", "tested target", "endpoint", "measured"],
 "data": [
  ["COC(=O)N/C=C/CCC(C)c1cc(O)c(C(=O)C(C)=Cc2ccc(OCC(C)C)cc2)c(=O)o1 (mixture of isomers)", "E. coli RNA polymerase σ^70 holoenzyme (Escherichia coli, UniProt P0A8T7+P0A8V2)", "pIC50", 5.70],
  ["CCCCc1ccc(C=C(C)C(=O)c2c(O)cc(C(C)CC/C=C/NC(=O)OC)oc2=O)c(C)c1 (mixture of isomers)", "E. coli RNA polymerase σ^70 holoenzyme (Escherichia coli, UniProt P0A8T7+P0A8V2)", "pIC50", 8.00],
  ["COC(=O)N/C=C/CCC(C)c1cc(O)c(C(=O)C(C)=Cc2ccc(OCC(F)F)cc2)c(=O)o1 (mixture of isomers)", "E. coli RNA polymerase σ^70 holoenzyme (Escherichia coli, UniProt P0A8T7+P0A8V2)", "pIC50", 6.70],
  ["COC(=O)N/C=C/CCC(C)c1cc(O)c(C(=O)C(C)=Cc2sc(CC(C)C)cc2Br)c(=O)o1 (mixture of isomers)", "E. coli RNA polymerase σ^70 holoenzyme (Escherichia coli, UniProt P0A8T7+P0A8V2)", "pIC50", 8.40],
  ["COC(=O)N/C=C/CCC(C)c1cc(O)c(C(=O)C(C)=Cc2ccc(CCCC(F)(F)F)s2)c(=O)o1 (mixture of isomers)", "E. coli RNA polymerase σ^70 holoenzyme (Escherichia coli, UniProt P0A8T7+P0A8V2)", "pIC50", 8.00],
  ["COC(=O)N/C=C/CCC(C)c1cc(O)c(C(=O)C(C)=Cc2cnc(CCC(C)C)s2)c(=O)o1 (mixture of isomers)", "E. coli RNA polymerase σ^70 holoenzyme (Escherichia coli, UniProt P0A8T7+P0A8V2)", "pIC50", 8.00]
]}

###

Attribute: MIC
System: Francisella tularensis SCHU4
test summary: microbe, parasite or virus in culture
Format: cell-based
experimental parameters: Francisella tularensis, SCHU4, read-out: MIC F. tularensis SCHU4

{"columns": ["compound", "tested target", "comparison operator", "MIC / µg/mL"],
 "data": [
  ["COC(=O)N/C=C/CCC(C)c1cc(O)c(C(=O)C(C)=Cc2ccc(Oc3ccc(C(F)(F)F)cc3)s2)c(=O)o1 (mixture of isomers)", "Francisella tularensis SCHU4", "=", 50],
  ["COC(=O)N/C=C/CCC(C)c1cc(O)c(C(=O)C(C)=Cc2ccc(CCC(F)(F)F)s2)c(=O)o1 (mixture of isomers)", "Francisella tularensis SCHU4", "=", 30],
  ["COC(=O)N/C=C/CCC(C)c1cc(O)c(C(=O)C(C)=Cc2ccc(OCCC(F)(F)F)cc2)c(=O)o1 (mixture of isomers)", "Francisella tularensis SCHU4", ">", 50]
]}

###

Tested on: Burkholderia pseudomallei Human/Blood/OH/US/1994
test summary: microbe, parasite or virus in culture
Assay type: cell-based
experimental parameters: Burkholderia pseudomallei, read-out: MIC B. pseudomallei Human/Blood/OH

{"columns": ["compound", "unit of measure", "comparison operator", "MIC"],
 "data": [
  ["COC(=O)N/C=C/CCC(C)c1cc(O)c(C(=O)C(C)=Cc2ccc(CCC(C)C)s2)c(=O)o1 (mixture of isomers)", "µg/mL", "=", 6],
  ["COC(=O)N/C=C/CCC(C)c1cc(O)c(C(=O)C(C)=Cc2sc(CCC(C)C)cc2C)c(=O)o1 (mixture of isomers)", "µg/mL", "=", 6],
  ["CCCCCCc1cccc(C=C(C)C(=O)c2c(O)cc(C(C)CC/C=C/NC(=O)OC)oc2=O)c1 (mixture of isomers)", "µg/mL", "=", 30],
  ["CCCCOc1cccc(C=C(C)C(=O)c2c(O)cc(C(C)CC/C=C/NC(=O)OC)oc2=O)c1 (mixture of isomers)", "µg/mL", "=", 50],
  ["CCCc1ccc(C=C(C)C(=O)c2c(O)cc(C(C)CC/C=C/NC(=O)OC)oc2=O)s1 (mixture of isomers)", "µg/mL", "=", 50],
  ["COC(=O)N/C=C/CCC(C)c1cc(O)c(C(=O)C(C)=Cc2ccc(CCCC3CCCCC3)s2)c(=O)o1 (mixture of isomers)", "µg/mL", "=", 6],
  ["CCCCc1ncc(C=C(C)C(=O)c2c(O)cc(C(C)CC/C=C/NC(=O)OC)oc2=O)s1 (mixture of isomers)", "µg/mL", "=", 50],
  ["CCCCc1ccc(C=C(C)C(=O)c2c(O)cc(C(C)CC/C=C/NC(=O)OC)oc2=O)cc1 (mixture of isomers)", "µg/mL", "=", 10],
  ["COC(=O)N/C=C/CCC(C)c1cc(O)c(C(=O)C(C)=Cc2cc(Br)c(CC(C)C)s2)c(=O)o1 (mixture of isomers)", "µg/mL", "=", 10],
  ["COC(=O)N/C=C/CCC(C)c1cc(O)c(C(=O)C(C)=Cc2cccc(OCCC(C)(C)C)c2)c(=O)o1 (mixture of isomers)", "µg/mL", ">", 50],
  ["CCCCCCc1csc(C=C(C)C(=O)c2c(O)cc(C(C)CC/C=C/NC(=O)OC)oc2=O)c1C (mixture of isomers)", "µg/mL", "=", 50],
  ["COC(=O)N/C=C/CCC(C)c1cc(O)c(C(=O)C(C)=Cc2ccc(Oc3ccc(C(F)(F)F)cc3)s2)c(=O)o1 (mixture of isomers)", "µg/mL", "=", 6],
  ["CCCCCCc1ccc(C=C(C)C(=O)c2c(O)cc(C(C)CC/C=C/NC(=O)OC)oc2=O)s1 (mixture of isomers)", "µg/mL", "=", 3]
]}
